# ASSAY_SYSTEM: PE-labeled human PD-L1-Ig binding to Jurkat cell line over-expressing human PD-1 (Jurkat-PD-1) (Homo sapiens, UniProt Q15116)
# Construct: expressed in transfected cells; host or cells: Jurkat
# Sequence (Q15116 25-288): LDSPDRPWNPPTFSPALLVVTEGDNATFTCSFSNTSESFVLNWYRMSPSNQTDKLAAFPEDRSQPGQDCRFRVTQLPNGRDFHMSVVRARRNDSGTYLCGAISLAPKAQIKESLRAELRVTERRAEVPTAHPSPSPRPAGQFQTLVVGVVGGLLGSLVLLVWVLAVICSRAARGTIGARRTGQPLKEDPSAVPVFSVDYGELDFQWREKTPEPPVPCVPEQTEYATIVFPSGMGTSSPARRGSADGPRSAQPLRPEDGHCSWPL
# METHOD_NOTES: Jurkat-PD-1 Cell Binding High-Content Screening Assay (CBA): Method 1
# CONDITION_INFO: Jurkat-hPD-1 cells, PE-labeled PD-L1-Ig 20 nM final; read-out: Jurkat HPDL1 PD1 IC50 (uM) (Method 1)
Bridge positions count the residues as written; N and C are the ends. Square brackets hold non-standard residues; d marks the D form. Peptide text beside a SMILES is read from it. Phe(4-COOH) = N[C@@H](Cc1ccc(C(=O)O)cc1)C(=O)O; Bip = N[C@@H](Cc1ccc(-c2ccccc2)cc1)C(=O)O; NMeA = CN[C@@H](C)C(=O)O
PARAMETER_MEASURED: IC50 (µM)

INSERT INTO results (compound, unit_abbrev, assay_result) VALUES
  ('CC(C)C[C@@H]1NC(=O)[C@H](Cc2c[nH]c3ccccc23)NC(=O)[C@H](CC(=O)O)NC(=O)[C@H](Cc2ccc(C(=O)O)cc2)NC(=O)[C@H](CC(N)=O)NC(=O)CSC[C@@H](C(=O)N[C@@H](C)C(N)=O)NC(=O)[C@H](CO)NC(=O)[C@H](C(C)C)NC(=O)[C@H](CC(C)C)NC(=O)[C@H](CC(N)=O)NC(=O)[C@@H](C)NC(=O)[C@H](C)N(C)C(=O)[C@H](C(C)C)NC(=O)[C@H](Cc2ccc(-c3ccccc3)cc2)NC1=O [Compound 1754] ({CH2CO}-N[Phe(4-COOH)]DWL[Bip]V[NMeA][dA]NLVSCA-NH2; thioether N-14)', 'µM', 0.03);

* * *

Each entry below carries its recorded IC50.
# ASSAY_SYSTEM: PE-labeled human PD-L1-Ig binding to Jurkat cell line over-expressing human PD-1 (Jurkat-PD-1) (Homo sapiens, UniProt Q15116)
# Construct: expressed in transfected cells; host or cells: Jurkat
# METHOD_NOTES: Jurkat-PD-1 Cell Binding High-Content Screening Assay (CBA): Method 1
# CONDITION_INFO: Jurkat-hPD-1 cells, PE-labeled PD-L1-Ig 20 nM final; read-out: Jurkat HPDL1 PD1 IC50 (uM) (Method 1)
Bridge positions count the residues as written; N and C are the ends. Square brackets hold non-standard residues; d marks the D form. Peptide text beside a SMILES is read from it. Bip = N[C@@H](Cc1ccc(-c2ccccc2)cc1)C(=O)O; Ala(2-furyl) = N[C@@H](Cc1ccco1)C(=O)O; Phe(3-Me) = Cc1cccc(C[C@H](N)C(=O)O)c1; 4Pal = N[C@@H](Cc1ccncc1)C(=O)O; Cit = NC(=O)NCCC[C@H](N)C(=O)O; NMeA = CN[C@@H](C)C(=O)O; Dab = NCC[C@H](N)C(=O)O; Dap = NC[C@H](N)C(=O)O
PARAMETER_MEASURED: IC50

INSERT INTO results (compound, assay_result) VALUES
  ('CC(C)C[C@@H]1NC(=O)[C@H](CCCNC(=N)N)NC(=O)[C@@H](CC(C)C)NC(=O)[C@H](C)N(C)C(=O)[C@H](CCCNC(=N)N)NC(=O)[C@H](Cc2ccc(-c3ccccc3)cc2)NC(=O)[C@H](C(C)C)NC(=O)[C@H](Cc2c[nH]c3ccccc23)NC(=O)[C@H](CC(=O)O)NC(=O)[C@H](Cc2ccc(O)cc2)NC(=O)[C@H](CC(N)=O)NC(=O)CSC[C@@H](C(=O)N[C@@H](C)C(N)=O)NC(=O)[C@H](CO)NC(=O)[C@H](C(C)C)NC1=O [Compound 1033] ({CH2CO}-NYDWV[Bip]R[NMeA][dL]RLVSCA-NH2; thioether N-14)', '0.03 µM'),
  ('CC[C@H](C)[C@@H]1NC(=O)[C@H](Cc2ccc(-c3ccccc3)cc2)NC(=O)[C@H](C(C)C)NC(=O)[C@H](Cc2c[nH]c3ccccc23)NC(=O)[C@H](CC(=O)O)NC(=O)[C@H](Cc2ccc(O)cc2)NC(=O)[C@H](CCC(N)=O)NC(=O)CSC[C@@H](C(=O)N[C@@H](C)C(N)=O)NC(=O)[C@H]([C@@H](C)O)NC(=O)[C@H](C(C)C)NC(=O)[C@H](CC(C)C)NC(=O)[C@H](CCN)NC(=O)[C@@H](CC(C)C)NC(=O)[C@H](C)N(C)C1=O [Compound 1391] ({CH2CO}-QYDWV[Bip]I[NMeA][dL][Dab]LVTCA-NH2; thioether N-14)', '0.03 µM'),
  ('CC(C)C[C@@H]1NC(=O)[C@H](C)NC(=O)[C@@H](C)NC(=O)[C@H](C)N(C)C(=O)[C@H](CCC(=O)O)NC(=O)[C@H](Cc2ccc(-c3ccccc3)cc2)NC(=O)[C@H](CC(C)C)NC(=O)[C@H](Cc2c[nH]c3ccccc23)NC(=O)[C@H](CC(=O)O)NC(=O)[C@H](Cc2ccc(O)cc2)NC(=O)[C@H](Cc2ccccc2)NC(=O)CSC[C@@H](C(=O)N[C@@H](C)C(N)=O)NC(=O)[C@H](CO)NC(=O)[C@H](C(C)C)NC1=O [Compound 1785] ({CH2CO}-FYDWL[Bip]E[NMeA][dA]ALVSCA-NH2; thioether N-14)', '0.09 µM'),
  ('CCC(C)[C@@H]1NC(=O)[C@H](Cc2ccc(-c3ccccc3)cc2)NC(=O)[C@H](C(C)C)NC(=O)[C@H](Cc2c[nH]c3ccccc23)NC(=O)[C@H](CC(=O)O)NC(=O)[C@H](Cc2ccc(C(=O)O)cc2)NC(=O)[C@H](Cc2ccc(OCC(=O)O)cc2)NC(=O)CSC[C@@H](C(=O)N[C@@H](CCC(=O)O)C(=O)N[C@H](C(N)=O)C(=O)O)NC(=O)[C@H](CO)NC(=O)[C@H](C(C)C)NC(=O)[C@H](CC2CCCCC2)NC(=O)[C@H](CC(N)=O)NC(=O)[C@@H](CC(C)C)NC(=O)[C@H](C)N(C)C1=O (some centres unmarked)', '0.04 µM'),
  ('Cc1cccc(C[C@@H]2NC(=O)[C@H](CC(=O)O)NC(=O)[C@H](Cc3ccncc3)NC(=O)[C@H](CN)NC(=O)CSC[C@@H](C(N)=O)NC(=O)[C@H](CO)NC(=O)[C@H](C(C)C)NC(=O)[C@H](CC(C)C)NC(=O)[C@H](CC(N)=O)NC(=O)[C@@H](CC(C)C)NC(=O)[C@H](C)N(C)C(=O)[C@H](C(C)C)NC(=O)[C@H](Cc3ccc(-c4ccccc4)cc3)NC(=O)[C@H](CC(C)C)NC2=O)c1 [Compound 1598] ({CH2CO}-[Dap][4Pal]D[Phe(3-Me)]L[Bip]V[NMeA][dL]NLVSC-NH2; thioether N-14)', '0.01 µM'),
  ('CC(C)C[C@@H]1NC(=O)[C@H](CCCCN)NC(=O)[C@@H](CC(C)C)NC(=O)[C@H](C)N(C)C(=O)[C@H](CCCNC(N)=O)NC(=O)[C@H](Cc2ccc(-c3ccccc3)cc2)NC(=O)[C@H](C(C)C)NC(=O)[C@H](Cc2c[nH]c3ccccc23)NC(=O)[C@H](CC(=O)O)NC(=O)[C@H](Cc2ccc(O)cc2)NC(=O)[C@H](CC(N)=O)NC(=O)CSC[C@@H](C(=O)NCC(N)=O)NC(=O)[C@H]([C@@H](C)O)NC(=O)[C@H](C(C)C)NC1=O [Compound 1475] ({CH2CO}-NYDWV[Bip][Cit][NMeA][dL]KLVTCG-NH2; thioether N-14)', '0.05 µM'),
  ('CC(C)C[C@@H]1NC(=O)[C@H](CCN)NC(=O)[C@@H](CC(C)C)NC(=O)[C@H](C)N(C)C(=O)[C@H](CCCNC(N)=O)NC(=O)[C@H](Cc2ccc(-c3ccccc3)cc2)NC(=O)[C@H](C(C)C)NC(=O)[C@H](Cc2c[nH]c3ccccc23)NC(=O)[C@H](CC(=O)O)NC(=O)[C@H](Cc2ccc(O)cc2)NC(=O)[C@H](CC(N)=O)NC(=O)CSC[C@@H](C(=O)N[C@@H](CCC(=O)O)C(N)=O)NC(=O)[C@H](CO)NC(=O)[C@H](C(C)C)NC1=O [Compound 1233] ({CH2CO}-NYDWV[Bip][Cit][NMeA][dL][Dab]LVSCE-NH2; thioether N-14)', '0.05 µM'),
  ('CC(C)C[C@@H]1NC(=O)[C@H](Cc2c[nH]c3ccccc23)NC(=O)[C@H](CC(=O)O)NC(=O)[C@H](Cc2ccco2)NC(=O)[C@H](Cc2ccccc2)NC(=O)CSC[C@@H](C(=O)N[C@@H](C)C(N)=O)NC(=O)[C@H](CO)NC(=O)[C@H](C(C)C)NC(=O)[C@H](CC(C)C)NC(=O)[C@H](CC(N)=O)NC(=O)[C@@H](C)NC(=O)[C@H](C)N(C)C(=O)[C@H](C(C)C)NC(=O)[C@H](Cc2ccc(-c3ccccc3)cc2)NC1=O [Compound 1734] ({CH2CO}-F[Ala(2-furyl)]DWL[Bip]V[NMeA][dA]NLVSCA-NH2; thioether N-14)', '0.01 µM');
